- ASSAYED TARGET: UniProt P30551
pKi: −log10 of the molar value.
READOUT LABEL: pKi

>>> reported("CC(Cc1ccc2ccccc2c1)(NC(=O)OC1[C@H]2C[C@@H]3C[C@@H](C[C@H]1C3)C2)C(=O)N(CCc1ccccc1)CC(=O)O (stereo partly specified)")
5.52

---

- ASSAYED TARGET: Gastrin/cholecystokinin type B receptor (Cavia porcellus)
- ASSAY NAME: Tested for inhibition of [3H]pCCK-8 specific binding to cholecystokinin type B receptor in guinea pig brain cortex
pKi: −log10 of the molar value.
Quick rule for you: pKi at 7 or higher means true, lower means false.

>>> class_assignment("CC(Cc1c[nH]c2ccccc12)(NC(=O)OC1[C@H]2C[C@@H]3C[C@@H](C[C@H]1C3)C2)C(=O)NCCc1ccc(Br)cc1 (stereo partly specified)")
"true"
>>> class_assignment("CCOC(=O)CN(CCc1ccccc1)C(=O)C(C)(Cc1c[nH]c2ccccc12)NC(=O)OC1[C@H]2C[C@@H]3C[C@@H](C[C@H]1C3)C2 (stereo partly specified)")
"false"
>>> class_assignment("CC(Cc1c[nH]c2ccccc12)(NC(=O)OC1[C@H]2C[C@@H]3C[C@@H](C[C@H]1C3)C2)C(=O)NCC(=O)O (stereo partly specified)")
"false"
>>> class_assignment("CC(Cc1c[nH]c2ccccc12)(NC(=O)OC1[C@H]2C[C@@H]3C[C@@H](C[C@H]1C3)C2)C(=O)N(CCc1ccc(Cl)cc1Cl)CC(=O)O (stereo partly specified)")
"true"
>>> class_assignment("CC(Cc1c[nH]c2ccccc12)(NC(=O)OC1[C@H]2C[C@@H]3C[C@@H](C[C@H]1C3)C2)C(=O)Nc1ccc2ccccc2c1 (stereo partly specified)")
"false"
>>> class_assignment("CC(Cc1c[nH]c2ccccc12)(C(=O)OC1[C@H]2C[C@@H]3C[C@@H](C[C@H]1C3)C2)C(=O)N(CCc1ccc(Cl)cc1Cl)CC(=O)O (stereo partly specified)")
"true"
>>> class_assignment("CC(Cc1c[nH]c2ccccc12)(NC(=O)OC1[C@H]2C[C@@H]3C[C@@H](C[C@H]1C3)C2)C(=O)NCc1ccccc1 (stereo partly specified)")
"false"
>>> class_assignment("CC(Cc1c[nH]c2ccccc12)(NC(=O)OC1[C@H]2C[C@@H]3C[C@@H](C[C@H]1C3)C2)C(=O)NCCc1ccc(Cl)cc1Cl (stereo partly specified)")
"true"
